Cited source: PubChem BioAssay (NCI)

Test system: SK-OV-3 ovarian
Test: NCI-60 one-dose screen, 48 h (100 = growth as untreated, 0 = no growth, -100 = all killed)
Details: 10 µM unless noted
The panel holds about 83,000 compounds, 20% with a hit somewhere; the sample as a whole holds those more often.
Category key, based on recorded growth: bottom end: < 30%; midrange: ≥ 30% and < 80%; top end: ≥ 80%

These solved cases illustrate the format of a correct answer.
COc1cc(C2CC(c3ccc(F)cc3)=Nc3c(N)nc(N)nc3N2)ccc1Oc1nc(Nc2ccc(F)cc2)nc(N(C)C)n1 (configuration not stated) ... top end
CC[C@]12C=CCN3CC[C@]4(C(=C(C(=O)OC)C1)Nc1cc(OC)c([C@@H]5[C@H]6O[C@H]6[C@@]6(CC)CC(C(=O)OC)=C7Nc8cc(O)ccc8[C@@]78CCN5[C@@H]68)cc14)[C@@H]32 ... midrange

### Prompt Hi, small favor: classify `Cc1ccc(C(=O)Nc2cc(-c3ccccc3)cc(C(F)(F)F)c2)cc1C#Cc1cnc2cccnn12` by its growth when you get a moment.
### Response top end

### Prompt Kindly state the category for this compound: `Cn1cc(-c2cc3nc(-c4cn(C)c5ncc(Br)cc45)cc(N)n3n2)c2cc(F)ccc21`
### Response midrange

### Prompt Sort `O=C(Cn1c(-c2ccccc2)nc2ccccc21)N=Nc1c(O)[nH]c2ccc(Cl)cc12` into one of the categories.
### Response bottom end

### Prompt Hi there! Could you help me figure out the category for CCCCNc1ccc2c3c(cccc13)C(=O)N(NCC(O)COc1ccc3c(C)cc(=O)oc3c1)C2=O (configuration not stated) please?
### Response top end

### Prompt Into which bin does this compound go? `C=CCn1c(O)c(N=Nc2nc(-c3cc4ccccc4oc3=O)cs2)c2ccccc21`
### Response top end

* * *

Tested on: ACHN renal
Assay: NCI-60 one-dose screen, 48 h (100 = growth as untreated, 0 = no growth, -100 = all killed)
Settings: 10 µM unless noted
This is part of a sample that, as a whole, favours compounds with a hit. Of some 83,000 tested, about 20% had one in any assay.
assayMetric: growth (%)
# value in %; strip the unit string

// solved cases for growth follow
CS(=O)(=O)Nc1cc(-c2ccc3ncnc(Nc4ccc(OCc5cccnc5)c(Cl)c4)c3c2)cnc1Cl ... 32
CC(=O)Nc1ccc(S(=O)(=O)Nc2ccc(-c3ccc4c(c3)NC(=O)/C4=C\c3ccc[nH]3)cc2)cc1 ... 75.5

### Prompt What value of growth has been recorded for this entry: `O=C(CSc1nnc(-c2ccc(-c3nc4ccc(Cl)cc4[nH]3)cc2)o1)Nc1ccc(Br)cc1`
### Response -69.1

### Prompt Given the molecule `COc1ccc(-c2cc(C(=O)Oc3ccc(C=O)cc3OC)nn2-c2ccc(S(C)(=O)=O)cc2)cc1` , what is its reported growth?
### Response 106

### Prompt Recorded growth for `COc1ccc(S(=O)(=O)Nc2ccc(-c3ccc4c(c3)NC(=O)/C4=C\c3ccc[nH]3)cc2)cc1OC` , please?
### Response -31.4

### Prompt Query: growth; subject: `O=C(N/N=C/c1ccc(-c2cccc([N+](=O)[O-])c2)s1)c1[nH]c2ccc(Br)cc2c1-c1ccccc1`
### Response 87.3

* * *

# key: entry, value: growth
Tested on: NCI-H226 lung
Assay: NCI-60 one-dose screen, 48 h (100 = growth as untreated, 0 = no growth, -100 = all killed)
Settings: 10 µM unless noted
This is part of a sample that, as a whole, favours compounds with a hit. Of some 83,000 tested, about 20% had one in any assay.
Give the value, in units of %, as a plain number.

Sample records with growth:
Cc1nc(Nc2ccccn2)sc1C1=NNC(c2ccccc2F)C1 (stereo unspecified) ... 78.9
O=c1ccc(Cn2c(C(F)(F)F)cc3c(Cl)ncnc32)c[nH]1 ... 116
S=C(NCCc1ccccc1)Nc1ccc(OCc2nc3ccc(Cl)cc3[nH]2)cc1 ... 67.1
CCCCCCCCCCCCCCCCCC(=O)Nc1ccc(OC)cc1 ... 103
CNc1nc2ccccc2n2c(-c3ccc(O)c(O)c3)cnc12 ... -14.9

Here is the next item to consider.
### Prompt State the recorded growth for this entry: `Cn1cc(-c2cc(N)n3nc(-c4c[nH]c5ccc(F)cc45)cc3n2)c2cc(Br)cnc21`
### Response 68.6

* * *

Tested on: OVCAR-5 ovarian
Assay: NCI-60 one-dose screen, 48 h
Details: 10 µM unless noted
Protocol: Growth inhibition of the OVCAR-5 human tumor cell line is measured as a screen for anti-cancer activity. Cells are grown in 96 well plates and exposed to the test compound for 48 hours. Compounds are tested at a single concentration, which is 10^-5 M for most compounds. The reported endpoint is percent growth (GI% or GIPRCNT), where numbers from 0 - 100% represent growth inhibition, and numbers from -100% - 0 represent cell death. For example, a value of 40 represents 60% growth inhibition. […]
The panel holds about 83,000 compounds, 20% with a hit somewhere; the sample as a whole holds those more often. Activity calls are given as the source filed them. Rule for the calls: active = growth percent below 10; inactive = the rest.
Select the matching outcome among Y = active, N = inactive

Solved entries:
Cc1ccccc1Nc1nnc(-c2c[nH]c3ccccc23)o1 ... N
CC(C)(C)c1cc(-c2cc(-c3ccccc3)[nH]c(=O)c2C#N)cc(C(C)(C)C)c1 ... N
COc1ccc(-c2nc3ccc(-c4nnc(SCc5ccccc5)o4)cc3[nH]2)cc1 ... N
O=C(N/N=C/c1ccc(Br)o1)c1[nH]c2ccc(Br)cc2c1-c1ccccc1 ... Y

### Prompt Recorded test outcome, item `Cc1ccc(/C=C/C(=O)c2ccc(S(=O)(=O)NCCNc3nc(N(C)C)nc(N4CCOCC4)n3)cc2)cc1`
### Response N

### Prompt Outcome logged for `COc1ccccc1NC(=O)N/N=C/c1c[nH]c2ccccc12` in this assay:
### Response N

### Prompt Please let me know the test result on file for `COc1ccc2[nH]c(O)c(N=NC(=O)c3ccc4nc(-c5ccc(Cl)cc5)[nH]c4c3)c2c1` .
### Response N

### Prompt What outcome does the record of this test show for `COc1ccc(C(=O)c2c(N)c(C#N)cn2-c2ccc([N+](=O)[O-])cc2)cc1` ?
### Response N

### Prompt Dear all, I need the recorded test outcome for `COc1nc(N)ncc1-c1ccc2ncnc(N3CCc4cc(F)c(Cl)cc43)c2c1` , thank you.
### Response Y

### Prompt Look up the recorded call for `Cc1cccc(C)c1Nc1nnc(-c2c[nH]c3ccccc23)o1` in this test.
### Response N

* * *

Tested on: HCC-2998 colon
Assay: NCI-60 one-dose screen, 48 h
Conditions: 10 µM unless noted
This is part of a sample that, as a whole, favours compounds with a hit. Of some 83,000 tested, about 20% had one in any assay. Activity calls are given as the source filed them. How the source made its calls: active means growth percent below 10; inactive means the rest.
Reply using exactly one outcome from active, inactive

N#Cc1c(NC(=O)N2CCOCC2)n(-c2ccc(OC(F)(F)F)cc2)c2cc(F)ccc12 ... inactive
CN1CCc2c(sc3ncnc(N/N=C/c4cccc(Cl)c4Cl)c23)C1 ... active
Nc1nc(-c2ccccc2)c(N=Nc2ccc(Cl)cc2Cl)s1 ... active
c1n[nH]cc1-c1nc2ccc3[nH]ncc3c2c2c1CC1(CC2)COC1 ... inactive
CCN1CCN(Cc2ccc(C(=O)Nc3cccc(Nc4ccc5c(OC)cccc5n4)c3)cc2C(F)(F)F)CC1 ... active

### Prompt Fill in: this test's call for `CCc1ccccc1NC(=O)N/C(N)=N/c1nc2ccccc2s1` is ___
### Response active

### Prompt For this compound, state the assay outcome: `Cn1ncc2c(N)nc(Oc3ccccc3-c3ccccc3)nc21`
### Response inactive

* * *

Test system: SN12C renal
Assay: NCI-60 one-dose screen, 48 h (100 = growth as untreated, 0 = no growth, -100 = all killed)
Conditions: 1 µM
The panel holds about 83,000 compounds, 20% with a hit somewhere; the sample as a whole holds those more often.
assayMetric: growth (%)
Please reply with the bare figure in % and do not write the unit itself.

Would you please look over these solved cases?
CC/C(=C(\c1ccc(O)cc1)c1ccc(OCCN(C)C(=O)CCOCCNC(=O)c2ccc3c(c2)CN([C@@H]2CCC(=O)NC2=O)C3=O)cc1)c1ccccc1 ... 91.3
CC/C(=C(\c1ccc(O)cc1)c1ccc(OCCNC)cc1)c1ccccc1 ... 101
CC/C(=C(/c1ccc(O)cc1)c1ccc(OCCN(C)C(=O)COCCOCCNC(=O)Cc2ccc3c(c2)CN([C@@H]2CCC(=O)NC2=O)C3=O)cc1)c1ccccc1 ... 88.7
CC/C(=C(/c1ccc(O)cc1)c1ccc(OCCN(C)C(=O)CCOCCNC(=O)Cc2ccc3c(c2)CN([C@@H]2CCC(=O)NC2=O)C3=O)cc1)c1ccccc1 ... 89

We now examine a further compound.
### Prompt Data request, read-out growth, for `CC/C(=C(\c1ccc(O)cc1)c1ccc(OCCN(C)C(=O)COCCNC(=O)Cc2ccc3c(c2)CN([C@@H]2CCC(=O)NC2=O)C3=O)cc1)c1ccccc1`
### Response 73.9
